- cond: buffer; pH 7.4; 200.0 µM
Kindly state solubility kinetic for each of the entries shown.

Enquiry: Provide one value: measured solubility kinetic of CCN1CCCC1CNC(=S)Nc1ccc(C(C)=O)cc1 (centres undefined)
Return: > 45.8 µg/mL

Enquiry: Provide one value: measured solubility kinetic of CC(=O)N=c1sc(S(N)(=O)=O)nn1C
Return: > 35.4 µg/mL

Enquiry: Provide one value: measured solubility kinetic of COc1ccc(CC(=O)Nc2ccccc2N2CCCC2)cc1OC
Return: > 51.1 µg/mL

Enquiry: Provide one value: measured solubility kinetic of CCn1cc(C(C)NC(=O)Nc2ccc3c(c2)OCO3)c(C)n1 (centres undefined)
Return: > 47.5 µg/mL
